Tested on: HIV-1NL4-3
METHOD NOTES: P4-MAGI assay
Type: cell-based
CONDITION SUMMARY: Human immunodeficiency virus 1, 24 h, P4 cells, 24 hour incubation, β-galactosidase expression; read-out: P4-MAGI IC50
pIC50: −log10 of the molar value.
pIC50 values for the compounds below.
MEASURED PARAMETER: pIC50

[
  {
    "COMPOUND": "C=C(C)[C@@H]1CC[C@]2(C(=O)NCCc3cccc(C(=O)NCc4cccnc4C(=O)O)c3)CC[C@]3(C)C(CCC4[C@@]5(C)CC[C@H](O)C(C)(C)C5CC[C@]43C)C12 (some centres unmarked) [Example 230]",
    "OBSERVED RESULT": 7.25
  },
  {
    "COMPOUND": "C=C(C)[C@@H]1CC[C@]2(C(=O)NCc3cccc(C(=O)Nc4cccc(C(=O)O)c4)c3)CC[C@]3(C)C(CCC4[C@@]5(C)CC[C@H](O)C(C)(C)C5CC[C@]43C)C12 (some centres unmarked) [Example 15]",
    "OBSERVED RESULT": 6.49
  },
  {
    "COMPOUND": "C=C(C)[C@@H]1CC[C@]2(C(=O)NCCc3cccc(C(=O)NCc4ccc(C(=O)N[C@@H](C(=O)OC)[C@H](C)O)cc4)c3)CC[C@]3(C)C(CCC4[C@@]5(C)CC[C@H](O)C(C)(C)C5CC[C@]43C)C12 (some centres unmarked) [Example 161]",
    "OBSERVED RESULT": 7.82
  },
  {
    "COMPOUND": "C=C(C)[C@@H]1CC[C@]2(C(=O)NCCc3cccc(C(=O)NCC4(CC(=O)O)CCCCC4)c3)CC[C@]3(C)C(CCC4[C@@]5(C)CC[C@H](O)C(C)(C)C5CC[C@]43C)C12 (some centres unmarked) [Example 212]",
    "OBSERVED RESULT": 7.07
  },
  {
    "COMPOUND": "C=C(C)[C@@H]1CC[C@]2(C(=O)NCCc3ccc(F)c(C(=O)NCc4ccc(C(=O)O)cn4)c3)CC[C@]3(C)C(CCC4[C@@]5(C)CC[C@H](O)C(C)(C)C5CC[C@]43C)C12 (some centres unmarked) [Example 262]",
    "OBSERVED RESULT": 7.94
  },
  {
    "COMPOUND": "C=C(C)[C@@H]1CC[C@]2(C(=O)NCc3ccc(C(=O)NCc4ccc(C(=O)O)o4)o3)CC[C@]3(C)C(CCC4[C@@]5(C)CC[C@H](O)C(C)(C)C5CC[C@]43C)C12 (some centres unmarked) [Example 90]",
    "OBSERVED RESULT": 5.19
  },
  {
    "COMPOUND": "C=C(C)[C@@H]1CC[C@]2(C(=O)NCc3cc(C(=O)NCc4ccc(N(C)C)cc4)ccc3F)CC[C@]3(C)C(CCC4[C@@]5(C)CC[C@H](O)C(C)(C)C5CC[C@]43C)C12 (some centres unmarked) [Example 180]",
    "OBSERVED RESULT": 6.00
  },
  {
    "COMPOUND": "C=C(C)[C@@H]1CC[C@]2(C(=O)NCCc3cccc(C(=O)NCc4cccc(C(=O)OC)c4F)c3)CC[C@]3(C)C(CCC4[C@@]5(C)CC[C@H](O)C(C)(C)C5CC[C@]43C)C12 (some centres unmarked) [Example 74]",
    "OBSERVED RESULT": 7.56
  }
]
